- conditionDescription: 293.15 K; Liquid; Closed cell (Static) method
Numbers after ± are expanded uncertainties.
readoutLabel: vapor or sublimation pressure
Show the value, then the unit it is measured in.

C1CCCCC1 | 10.37 ± 0.064 kPa

Using the record for CCCOC(C)=O [propyl ethanoate] , report its vapor or sublimation pressure.
3.43 ± 0.029 kPa

And the next one, C=CCCCC ?
19.98 ± 0.12 kPa

And the next one, CCCCCCC ?
4.736 ± 0.034 kPa

###

- conditionDescription: 298.15 K; Liquid; Closed cell (Static) method
vapor or sublimation pressure: recorded values
Give the value, in units of kPa, as a plain number.

# annotated cases, reported vapor or sublimation pressure shown
C=CCCCC [hex-1-ene] | 24.77
CCCCCCC [heptane] | 6.104
CCCOC(C)=O [propyl ethanoate] | 4.514

Okay, now this compound:
Using the record for C1CCCCC1 [cyclohexane] , report its vapor or sublimation pressure.
13.04
